I'd be grateful if you could share measured activity coefficient for these entries.
Test: activity coefficient (dimensionless); of the first substance listed, at infinite dilution; xn = mol fraction of the nth substance listed
Conditions: 328.15 K; 101 kPa; Liquid; Chromatography; x1 = 0

// worked examples, activity coefficient included
CCC(C)CC [3-methylpentane] + CCCC[N+]1(C)CCCC1.N#C[B-](C#N)(C#N)C#N	13.8
CCO [ethanol] + CCCC[N+]1(C)CCCC1.N#C[B-](C#N)(C#N)C#N	1.17
Cc1ccccc1 [toluene] + CCCC[N+]1(C)CCCC1.N#C[B-](C#N)(C#N)C#N	1.11
C1CCCCCCC1 [cyclooctane] + CCCC[N+]1(C)CCCC1.N#C[B-](C#N)(C#N)C#N	12.5

Query block: activity coefficient lookup needed for Cc1ccccc1C [1,2-dimethylbenzene] + CCCC[N+]1(C)CCCC1.N#C[B-](C#N)(C#N)C#N , thanks.
Result block: 1.36
